- Target entity: Cbl-b (Homo sapiens)
- Sequence (Q13191 36-427): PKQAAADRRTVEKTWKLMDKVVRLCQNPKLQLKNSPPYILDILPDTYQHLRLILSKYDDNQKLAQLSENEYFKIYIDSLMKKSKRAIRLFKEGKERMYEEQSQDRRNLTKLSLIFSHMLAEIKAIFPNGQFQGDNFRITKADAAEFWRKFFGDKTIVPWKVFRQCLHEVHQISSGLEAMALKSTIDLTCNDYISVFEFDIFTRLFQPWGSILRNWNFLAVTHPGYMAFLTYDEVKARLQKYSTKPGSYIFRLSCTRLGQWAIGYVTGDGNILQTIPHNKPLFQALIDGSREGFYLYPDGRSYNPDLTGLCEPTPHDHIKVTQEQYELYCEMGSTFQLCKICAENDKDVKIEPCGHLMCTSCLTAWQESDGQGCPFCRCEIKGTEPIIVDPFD
- Procedure text: Cbl-b inhibition assay (Cbl-b activity assay, FRET, Biological Example 1; 100 mM NaCl, 60 nM Src kinase)
- Format: biochemical
- Condition details: upper bound stated in text lists; read-out: IC50 values in the Cbl-b inhibition assay of Biological Example 1
pIC50: −log10 of the molar value.
Reported pIC50 is given for each of the following compounds.
Assay readout: pIC50

> print(dat)
                                    compound  assay.readout  measured.result
 1  CCn1cnnc1C[C@@H](C)c1cccc(NC(=O)c2cc(C(=O)N3C[C@@H](O)C[C@H]3C)ccn2)c1          pIC50           ≥ 6.00
 2  C[C@H](Cc1nncn1C)c1cccc(NC(=O)c2cc(C3CC3)nc(C3CC3)n2)c1          pIC50           ≥ 7.00
 3  CC(Sc1nncn1C)c1cccc(N2Cc3ccc(Cl)cc3C2=O)c1 (stereo not drawn)          pIC50           ≥ 5.00
 4  Cn1cnnc1CC1(c2cccc(N3Cc4c(cc(CN5CCc6ncccc6C5)cc4C(F)(F)F)C3=O)c2)COC1          pIC50           ≥ 7.00
 5  Cc1cc(C(=O)Nc2cccc(C3(Cc4nncn4C)COC3)c2)nc(C2CC2)c1          pIC50           ≥ 7.00
 6  Cn1cnnc1CC1(c2cccc(N3Cc4c(cc(CN5CCCC6CC65)cc4C(F)(F)F)C3=O)c2)COC1 (stereo not drawn)          pIC50           ≥ 7.00
 7  C[C@@H]1CCN(Cc2cc3c(c(C(F)(F)F)c2)CN(c2cccc(C4(Cc5nncn5C)COC4)c2)C3=O)C[C@H]1F (relative stereo)          pIC50           ≥ 7.00
 8  CC(C)C1CN(Cc2cc3c(c(C(F)(F)F)c2)CN(c2cccc(C4(Cc5nncn5C)COC4)c2)C3=O)CCO1 (stereo not drawn)          pIC50           ≥ 7.00
 9  Cc1cnn2c(C(=O)Nc3cccc(C4(Cc5nncn5C)COC4)c3)cc(C(F)(F)F)nc12          pIC50           ≥ 6.00
10  Cc1conc1CC1(c2cccc(NC(=O)c3cc(CN4CC[C@H](O)C4)nc(C4CC4)n3)c2)COC1          pIC50           ≥ 7.00
11  CCOC(Cc1nncn1C)c1cccc(N2Cc3c(cccc3C(F)(F)F)C2=O)c1 (stereo not drawn)          pIC50           ≥ 5.00
12  C[C@H](c1cc2c(c(C(F)(F)F)c1)CN(c1cccc(C3([C@@H](F)c4nncn4C)COC3)c1)C2=O)N1CCC2(CC2)C1 [Example 576]          pIC50           ≥ 7.00
13  Cn1cnnc1C[C@H](c1cccc(N2Cc3c(cccc3C(F)(F)F)C2=O)c1)C(F)(F)F [Compound 471a]          pIC50           ≥ 6.52
14  Cn1cnnc1CC1(c2cccc(N3Cc4c(cc(CN5Cc6ccc(Cl)cc6C5)cc4C(F)(F)F)C3=O)c2)COC1          pIC50           ≥ 7.00
15  Cn1cnnc1CC1(c2cccc(N3Cc4c(cc(CN5CCOC6(CCOC6)C5)cc4C(F)(F)F)C3=O)c2)COC1 (stereo not drawn)          pIC50           ≥ 7.00
16  Cn1cnnc1CC1(c2cccc(NC(=O)c3nc4c(C(F)(F)F)cccc4[nH]3)c2)COC1          pIC50           ≥ 7.00
17  Cc1ccc(C(=O)Nc2cc([C@H](C)Sc3nncn3C)ccn2)nc1C1CC1          pIC50           ≥ 6.00
18  Cn1cnnc1CC1(c2cccc(NC(=O)c3cc(CN4CCCCC4)nc(C4CC4)n3)c2)COC1          pIC50           ≥ 7.00
19  CC(Cn1[nH]cnc1=O)c1cccc(NC(=O)c2cccc(C(F)(F)F)n2)c1 (stereo not drawn)          pIC50           ≥ 5.00
20  C[C@@H](Cc1nncn1C)c1cccc(N2Cc3c(cccc3C(F)(F)F)C2=O)c1 [Compound 255b]          pIC50           ≥ 5.00
21  Cn1cnnc1CC1(c2cccc(N3Cc4c(cccc4C(F)(F)F)C3=O)c2)COC1          pIC50           ≥ 7.00
22  C[C@H](c1cc2c(c(C(F)(F)F)c1)CN(c1cccc(C3(Cc4nncn4C)COC3)c1)C2=O)N1CCC(F)(F)C1          pIC50           ≥ 7.00
23  C[C@H](Sc1nncn1C)c1ccnc(NC(=O)c2cccc(C(F)(F)F)n2)c1 [Compound 102b]          pIC50           ≥ 5.00
24  C[C@H](Cc1nncn1C)c1cccc(N2Cc3c(cc(N[C@H]4CCNC4)cc3C(F)(F)F)C2=O)c1          pIC50           ≥ 7.00
25  CCOc1cc(N2Cc3c(cc([C@H](C)N4CC[C@H](F)C4)cc3C(F)(F)F)C2=O)cc(C2(Cc3nncn3C)COC2)c1 [Example 691b]          pIC50           ≥ 7.00
26  Cn1cnnc1C(F)(F)[C@](C)(F)c1cccc(NC(=O)c2cc(CN3CC[C@H](F)C3)nc(C3CC3)n2)c1          pIC50           ≥ 7.00
27  C[C@H](Sc1nncn1C)c1ccnc(NC(=O)c2cc3c(C(F)(F)F)cccc3[nH]2)c1          pIC50           ≥ 6.30
28  Cn1cnnc1CC1(c2cccc(NC(=O)c3cc(CN4CC[C@H](F)C4)cc(C4CC4)n3)c2)COC1          pIC50           ≥ 7.00
29  C[C@@H](Sc1nncn1C)c1cccc(N2Cc3c(cccc3C(F)(F)F)C2=O)c1 [Compound 166b]          pIC50           ≥ 5.00
30  C[C@H](Sc1nncn1C)c1ccc(F)c(NC(=O)c2cccc(C(F)(F)F)n2)c1 [Compound 95a]          pIC50           ≥ 6.30

---

- Target entity: Cbl-b (Homo sapiens)
- Procedure text: Cbl-b inhibition assay (Cbl-b activity assay, FRET, Biological Example 1; 100 mM NaCl, 60 nM Src kinase)
- Type: biochemical
- Condition details: upper bound stated in text lists; read-out: IC50 values in the Cbl-b inhibition assay of Biological Example 1
pIC50: −log10 of the molar value.
Reported pIC50 is given for each of the following molecules.
Assay readout: pIC50

> print(dat)
                                   molecule  measured.result
1  CCc1cccc(C(=O)Nc2cc([C@H](C)Sc3nncn3C)ccn2)n1 [Compound 123]           ≥ 5.00
2  Cn1cnnc1CC1(c2cccc(N3Cc4c(cc(CN5CCCC5=O)cc4C(F)(F)F)C3=O)c2)COC1 [Compound 426]           ≥ 7.00
3  Cn1cnnc1CC1(c2cccc(NC(=O)c3cc(OC(F)F)cc(C4CC4)n3)c2)COC1 [Compound 502]           ≥ 7.00
4  CCOc1cccc(C(=O)Nc2cccc([C@H](C)Sc3nncn3C)c2)n1 [Compound 90]           ≥ 5.00

---

- Tested on: T-cell
- Procedure text: IL-2 secretion from T-cells stimulated with anti-CD3 antibody alone (Biological Example 2)
- Type: cell-based
- Condition details: 1 μM compound, primary human total T-cells, read-out: IL-2 secretion, Anti-CD3 stimulation, fold change over baseline
Assay readout: fold induction at 1 µM

> print(dat)
                                   compound  target.entity  measured.result
1  C[C@H](c1cc2c(c(C(F)(F)F)c1)CN(c1cccc(C3(Cc4nncn4C)COC3)c1)C2=O)N1CCC(C)(F)CC1 [Example 553b]         T-cell          > 0.201
2  Cn1cnnc1[C@@H](F)[C@](C)(F)c1cccc(N2Cc3c(cc(C4CC4)cc3C(F)(F)F)C2=O)c1 (stereo in doubt)         T-cell     0.051 to 0.1
3  Cn1cnnc1C(F)(F)C1(c2cccc(N3Cc4c(cc(CN5CC[C@H](F)C5)cc4C(F)(F)F)C3=O)c2)CC1         T-cell          > 0.201

---

- System: T-cell
- Procedure text: IL-2 secretion from T-cells co-stimulated with anti-CD3 and anti-CD28 antibody (Biological Example 2)
- Format: cell-based, human
- Condition details: Homo sapiens, T-cell, fold change over baseline; 0.3 μM Cbl-b inhibitor; primary human total T-cells; read-out: IL-2 secretion Anti-CD3/Anti-CD28 stimulation
Reported fold induction at 0.3 µM is given for each of the following compounds.
Assay readout: fold induction at 0.3 µM

> print(dat)
                                    compound  measured.result
 1  C[C@H](Sc1nncn1C)c1cccc(NC(=O)c2cc(C3(O)COC3)cc(C(F)(F)F)n2)c1 [Compound 84]              < 1
 2  Cn1cnnc1C(F)(F)C(C)(F)c1cccc(N2Cc3c(cccc3C(F)(F)F)C2=O)c1 (racemic) [Compound 296]              < 1
 3  Cn1cnnc1CC1(c2cccc(N3Cc4c(cccc4C(F)(F)F)C3=O)c2)COC1 [Compound 301]      1.01 to 2.5
 4  CC1CCc2c1n[nH]c2C(=O)Nc1cccc([C@H](C)Cc2nncn2C)c1 (stereo partly shown) [Compound 323]      1.01 to 2.5
 5  Cc1cc(C(=O)Nc2cccc(C3(Cc4nncn4C)COC3)c2)nc(C(F)(F)F)n1 [Compound 338]      1.01 to 2.5
 6  C[C@H](Cc1nncn1C)c1cccc(N2Cc3c(Br)cccc3C2=O)c1 [Compound 256]        2.51 to 5
 7  C[C@H](Cc1nncn1C)c1cccc(NC(=O)c2[nH]nc3c2CCCC3)c1 [Compound 327]      1.01 to 2.5
 8  Cc1ccc(C(=O)Nc2cccc([C@H](C)Sc3nncn3C)c2)nc1C(F)(F)F [Compound 61]              < 1
 9  C[C@H](Cc1nncn1C)c1cccc(N2Cc3c(cc(C(=O)N4CC[C@H](O)C4)cc3C(F)(F)F)C2=O)c1 [Compound 274]      1.01 to 2.5
10  C[C@H](Cc1nncn1C)c1cccc(NC(=O)c2nc3c(C4CC4)cccc3[nH]2)c1 [Compound 319]      1.01 to 2.5
11  Cc1conc1CC(C)c1cccc(N2Cc3c(cccc3C(F)(F)F)C2=O)c1 (stereo not shown) [Compound 268]      1.01 to 2.5
12  Cc1cc(C(=O)Nc2cccc([C@H](C)Cc3nncn3C)c2)nc(C(F)(F)F)n1 [Compound 194]        2.51 to 5
13  C[C@H](Cc1nncn1C)c1cccc(N2Cc3c(cc(C(=O)N4CC[C@H](O)C4)cc3C3CC3)C2=O)c1 [Compound 277]      1.01 to 2.5
14  C[C@H](Sc1nncn1C)c1ccnc(N2Cc3c(cccc3C(F)(F)F)C2=O)c1 [Compound 172a]        2.51 to 5
15  C[C@H](Cc1nncn1C)c1cc(NC2CCC2)nc(N2Cc3c(cccc3C(F)(F)F)C2=O)c1 [Compound 351]      1.01 to 2.5
16  Cc1ccnn1CC(C)c1cccc(NC(=O)c2cccc(C(F)(F)F)n2)c1 (stereo not shown) [Compound 215]              < 1
